Reference source for all entries: paper PMC10288853

# Protocol Text: Plasma pharmacokinetics by LC-MS/MS
# Reported Conditions: human, plasma, oral, Median AUC0–8hr [Min; Max], plasma binimetinib; Cycle 1 Day 1 (C1D1); Dose Level 4: AEB071 300 mg bid and MEK162 45 mg bid
Property Label: AUC(0-t) (µg·h/mL)
Express it in µg·h/mL; write the number only.

// field: AUC(0-t); key: Cn1cnc2c(F)c(Nc3ccc(Br)cc3F)c(C(=O)NOCCO)cc21 ; value = 1.61

* * *

# Protocol Text: Plasma pharmacokinetics by LC-MS/MS
# Reported Conditions: human, plasma, oral, 30 mg, median AUC0-8hr range of binimetinib, cycle 1 day 15; binimetinib 30 mg b.i.d. with varying doses of sotrastaurin
Property Label: AUC(0-t)

// field: AUC(0-t); key: Cn1cnc2c(F)c(Nc3ccc(Br)cc3F)c(C(=O)NOCCO)cc21 [binimetinib] ; value = 1210 to 1450 ng·h/mL
